assay: probe aInhba binding on compound microarray – biochemical, small-molecule microarray, 635/667 nm fluorescence, primary screen (AID 1148); conditions: higher = more signal;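 note: score merges 667nm spot fluorescence with signal-to-noise for antibody binding to printed compounds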
Given measured composite z-score, output Satisfied if it is greater than or equal to -0.09 and Not satisfied if not.

compound	label
CC(C)C(CO)N1C(=O)[C@@H]2[C@H]3C(=O)OCC=C[C@H]3OC23C=CCN(c2ccc(Cl)cc2)C(=O)[C@@H]13 (stereo partly specified)	Not satisfied
NC(=O)NCC#Cc1ccc2c(c1)[C@]1(C(=O)N2)[C@H](c2ccccc2OCCO)N2[C@H](c3ccccc3)[C@H](c3ccccc3)OC(=O)[C@H]2[C@@H]1C(=O)NC[C@H](O)c1ccccc1	Not satisfied
COc1ccc(C#Cc2ccc3c(c2)[C@]2(C(=O)N3)[C@H](c3ccc(OCCO)cc3)N3[C@H](c4ccccc4)[C@H](c4ccccc4)OC(=O)[C@H]3[C@@H]2C(=O)NC[C@H](O)c2ccccc2)cc1	Satisfied
O=C1[C@H]2C=C(I)[C@H](C[C@@H]2OCCOCCO)[C@@]12CO2	Not satisfied
CCOC(=O)C1=C[C@@H](C(C)(C)C)N(S(=O)(=O)c2ccc(C)cc2)[C@H]1c1cccc2ccccc12	Satisfied
C=CCN1C(=O)[C@]2(CCC(=O)OC(C)(C)C)N=C(c3ccc(OCCCO)cc3)O[C@@H]2c2ccccc21	Satisfied
C=C[C@H]1C(C(=O)OCC)=CC[C@@H](c2ccccc2)N1S(=O)(=O)c1ccc(C)cc1	Satisfied
CCCNC(=O)[C@@]1(C)c2ccccc2C(=O)N(c2ccc(C)cn2)[C@H]1c1ccc(CO)cc1	Satisfied
C=C(COC)/C(=C/C[C@H](OC(=O)c1ccncc1)c1ccc(CO)o1)c1cnc2ccccc2c1	Not satisfied
NCCCCCNC(=O)[C@@H]1C[C@@H]2C(=O)N[C@@H](CCCCN)C(=O)N2[C@@H]1c1ccc(O)cc1	Satisfied
O=C(C1N=C(c2ccc(OCCCO)cc2)N(c2ccccc2)O1)N1CCCCC1 (stereo unspecified)	Satisfied
C=CCC(OC(C)=O)[C@@H]1[C@@H](N(Cc2cc3ccccc3o2)C(=O)Cc2ccc(F)cc2)c2cc(OCCCO)ccc2N1C(=O)Cc1ccc2ccccc2c1 (stereo partly specified)	Not satisfied
Cc1cc(C)c(C(O)C2C=CC3C(=O)N(c4ccccc4)C(=O)C3N2Nc2ccccc2F)c(C)c1 (stereo unspecified)	Satisfied
CCOc1cc(C(O)C2C=CC3C(=O)NC(=O)C3N2Nc2ccc(Cl)cc2Cl)ccc1O (stereo unspecified)	Satisfied
C=CCN1Cc2ccccc2[C@@H]2OC(c3ccc(OCCCO)cc3)=N[C@]2(CC=C)C1=O	Satisfied
CN(C)C(=O)[C@]1(Cc2ccccc2CN=[N+]=[N-])N=C(c2ccc(OCCCO)cc2)O[C@@H]1c1ccccc1	Satisfied
C=CC[C@@]1(C(=O)NCCCOC)N=C(c2ccc(OCCCO)cc2)O[C@@H]1c1ccccc1N=[N+]=[N-]	Satisfied
CC[C@@H]1C=C(C(=O)O)[C@H](c2ccccc2)N1S(=O)(=O)c1ccc(C)cc1	Not satisfied
CCCNC(=O)[C@@H]1c2ccccc2C(=O)N(Cc2ccc(OC(F)(F)F)cc2)[C@H]1c1ccc(CO)cc1	Not satisfied
C=CCC(OC(C)=O)[C@@H]1[C@@H](N(Cc2ccc(-c3ccccc3)cc2)C(=O)c2ccc(-c3ccccc3)cc2)c2cc(OCCCO)ccc2N1C(=O)c1ccc2ccccc2c1 (stereo partly specified)	Not satisfied
Oc1ccc2cc[n+](Cc3cc4c(cc3Br)OCO4)cc2c1	Not satisfied
CCC1=C2CN(Cc3ccccc3)[C@@H](C(=O)Cc3ccccc3)C2C=CCC1 (stereo partly specified)	Satisfied
N[C@@H](Cc1ccccc1)C(=O)NCc1cn(Cc2ccccc2)nn1	Satisfied
C#CCN(Cc1ccccc1Br)[C@H](/C=C/c1ccccc1)[C@@H](O)Cc1ccccc1	Not satisfied
CCCN1C(=O)[C@@]2(Cc3ccccc31)N=C(c1ccc(OCCCO)cc1)O[C@H]2c1ccccc1	Satisfied
COc1ccc([Si](C)(C)[C@H]2[C@H](CC(=O)N(CCO)Cc3ccccc3)O[C@@]3(C(=O)N(C)c4c(Br)cc(C)cc43)[C@@H]2C)cc1	Not satisfied
O=C1C2C=CC(C(O)c3ccco3)N(Nc3ccccc3F)C2C(=O)N1c1ccccc1 (stereo unspecified)	Satisfied
CCOC(=O)C[C@H]1[C@H](OC(=O)c2ccc(-c3ccccc3)cc2)[C@@H](NC(=O)CC(C)C)c2cc(OCCCO)ccc2N1C(=O)c1ccc2ccccc2n1	Satisfied
COc1cc(NN2C(C(O)c3ccc(N(C)C)cc3)C=CC3C(=O)N(c4ccccc4)C(=O)C32)cc(OC)c1OC (stereo unspecified)	Satisfied
CC(C)=C1C(=O)C(c2ccccc2)=C2CN3C(=O)N(CCc4ccccc4)C(=O)[C@]3(Cc3ccc(C(F)(F)F)cc3)[C@H]21	Satisfied
COc1ccc([Si](C)(C)[C@H]2[C@H](CC(=O)N3Cc4ccccc4C[C@H]3CO)O[C@@]3(C(=O)N(Cc4ccc(N5CCOC5=O)cc4)c4ccccc43)[C@@H]2C)cc1	Not satisfied

====

test: compound effects on multiple myeloma cell viability – MM1S, calcein-AM fluorescence, 48 h, basal, profiling panel (AID 1165); conditions: higher = more signal; note: test concentration not given here
Reported z-score maps to class as: category 1 = under -3, category 2 = from -3 up to -1, category 3 = -1 and over

compound	label
CCCNC(=O)[C@@]1(Sc2ccc(C)cc2)CC(=O)N(C2Cc3ccccc3C2)[C@@H]1c1ccc(CO)cc1I	category 2
C=C(COC)C(=O)CC[C@@H](OC(C)=O)c1cccc(OCCO)c1	category 1
CCCCCCCCCC(O)C1C=CC2C(=O)N(c3ccccc3)C(=O)C2N1Nc1cc(OC)c(OC)c(OC)c1 (stereo unspecified)	category 1
COc1ccc(CCNC(=O)[C@@]2(c3ccc([N+](=O)[O-])cc3)CC(=O)N(C3CCCCC3)[C@@H]2c2ccc(CO)cc2)cc1	category 3
Cc1ccc(S[C@]2(C(=O)O)CC(=O)N(C3CCCCC3)[C@@H]2c2ccc(CO)cc2I)cc1	category 2
[N-]=[N+]=Nc1ccccc1C[C@@]1(C(N)=O)N=C(c2ccc(OCCCO)cc2)O[C@@H]1c1ccccc1N=[N+]=[N-]	category 2
COC(=O)[C@@]1(Cc2ccc(F)cc2)[C@H]2c3cc(C(=O)N(C)C)n(CCc4ccc(OC)c(Br)c4)c3C[C@H]2CN1C(=O)c1ccccc1	category 1
COc1ccc([Si](C)(C)[C@@H]2[C@@H](CC(=O)N3Cc4ccccc4C[C@H]3CO)O[C@]3(C(=O)N(Cc4ccc(N5C(=O)c6cccc7cccc5c67)cc4)c4ccccc43)[C@H]2C)cc1	category 2
NC(=O)[C@@]1(Cc2ccccc2)COC(c2ccc(OCCCO)cc2)=N1	category 3
C=CC[C@@H](OC(=O)Nc1ccc(SC)cc1)c1ccc(O)c(F)c1	category 2
COc1ccc(CCNC(=O)[C@@]2(Sc3ccc(C)cc3)CC(=O)N(Cc3ccccc3C(F)(F)F)[C@@H]2c2ccc(CO)cc2I)cc1	category 2
COC(=O)c1c(CC[C@@H](CO)NC(=O)N2CCC[C@H]2Cn2cc(C3(O)CCCCC3)nn2)oc(C(C)=O)c1C(=O)OC	category 3
CC#CCO[Si](C#Cc1ccccc1)(C(C)C)C(C)C	category 3
O[C@@H](Cc1ccccc1)[C@@H](/C=C/C1CC1)N(CC#Cc1ccccc1)Cc1ccccc1Br	category 3

====

assay: change in splice reporter luminescence, either direction, cell-based, HEK293, spliceosome inhibition project, primary screen (AID 1101); settings: HEK293 splicing luciferase reporter, 24 h, higher = more signal, called active from +8 up or from −8 down;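 note: HEK293 cells carrying a splicing-competent luciferase reporter gene; test concentration not given here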
Active and inactive are the calls of the source.
Recorded z-score by entry
measurement_kind: z-score

compound	obs_value
CCCCN1CC=CC23O[C@@H]4/C=C\CCC(C)OC(=O)C4[C@H]2C(=O)N(CCCO)[C@@H]3C1=O (some centres undefined)	0.239 (inactive)
CC(C)[Si]1(C(C)C)OCc2cc(-c3ccc(-c4ccc(Cl)c(Cl)c4)o3)nc(-c3ccccc3)c21	0.14 (inactive)
CC(C)N1C(=O)C[C@@](C(=O)O)(c2ccc([N+](=O)[O-])cc2)[C@H]1c1ccc(CO)cc1	-0.186 (inactive)
COCCOC(=O)N1C(=O)[C@@]2(c3cc(C#CCCO)ccc31)[C@H](C(=O)Nc1nc3ccccc3s1)[C@H]1C(=O)O[C@H](c3ccccc3)[C@H](c3ccccc3)N1[C@@H]2c1ccc(O)cc1	-0.221 (inactive)

====

tested on: Plasmodium falciparum Sir2 (PF13_0152, Sir2A); assay: Plasmodium falciparum Sir2A binding compounds – biochemical, small-molecule microarray, 635 nm fluorescence, primary screen (AID 1098); conditions: fluorescence 635 nm, higher = more signal;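 note: score merges spot fluorescence intensity with its signal-to-noise ratio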
measurement_kind: composite z-score

compound	obs_value
N#Cc1ccc(NN2C(C(O)c3ccc(Br)cc3)C=CC3C(=O)N(c4ccccc4)C(=O)C32)cc1 (centres undefined)	1.17
O=C1OCCC=C[C@H]2OC34C=CCN(c5ccc6ccccc6c5)C(=O)[C@H]3N(CCCO)C(=O)[C@@H]4C12 (some centres undefined)	0.933
CCC#CCN(Cc1ccccc1Br)[C@H](/C=C/C1CC1)[C@@H](O)Cc1ccccc1	-0.306
O=C(O)[C@@H]1[C@@H]2C(=O)N(c3ccccc3)C(=O)[C@@H]2C[C@@H]1Sc1ccccc1	1.61
